Attribution: PubChem BioAssay (NCATS)

Test: Quantitative High-Throughput drug screen in 47 multiple myeloma cell lines against the NCATS MIPE library collection: Karpas417_ECACC cell viability assay (AID 1918961)
Conditions: Karpas417 myeloma viability, CellTiter-Glo ATP luminescence, 48 h
Records with an inconclusive call do not appear. The source made the active and inactive calls. Calls follow the shape of the dose curve; as a rule, active = well fitted cell-killing curve with a large enough effect; inconclusive = small, poorly fitted or top-dose-only effect, or effect the other way; inactive = no such curve, though single readings can be large or run the other way.
Permitted responses: YES = active, NO = inactive

Answered examples (4):
N#CC(=C1Nc2ccccc2S1)c1ccnc(OCc2ccc(CN3CCOCC3)cc2)n1 = YES
CC(=O)Nc1cccc(-n2c(=O)n(C3CC3)c(=O)c3c(Nc4ccc(I)cc4F)n(C)c(=O)c(C)c32)c1 = YES
CN(C)CCOc1ccc(C(=C(CCCl)c2ccccc2)c2ccccc2)cc1 = NO
COc1c(C)cnc(Cn2cnc3c(Cl)nc(N)nc32)c1C = YES

From here, focus on the item given below.
Prompt: Recorded test outcome, item `OCCn1cc(-c2ccc3c(c2)CCC3=NO)c(-c2ccncc2)n1`
Completion: YES

---

Assay: qHTS for identification of novel therapeutic agents for treatment of microphthalmiaassociated transcription factor (MiT) renal cell carcinoma (RCC) (AID 1963991);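 also: curves scaled with 100% = DMSO viability and 0% = empty wells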
Conditions: TFE3-RCC viability, CellTiter-Glo, 48 h; measured here: UOK124 Z-AUC; stronger effect = lower value
Protocol: PI: Marston Linehan Ph.D. Urologic Oncology Branch, Center for Cancer Research (CCR) National Cancer Institute (NCI), National Institute of Health (NIH), Bethesda, Maryland […] 6; Detection; Luminescence; ViewLux plate reader (PerkinElmer). […] 1. Quantitative high-throughput screening (qHTS) of 1912 pharmacologically defined small molecule compounds was conducted on three TFE3-fusion cell lines bearing three different fusion partners (UOK109, UOK124, UOK145). […]
Inconclusive results are not listed.
experimentalReadout: z-score
// keep it numeric: no unit symbol after the value

CC1=C(C(=O)Nc2cc3cn[nH]c3cc2F)C(c2ccc(C(F)(F)F)cc2)CC(=O)N1 (configuration not stated) = 0.25

Recorded result, CCCCCOC(=O)Nc1nc(=O)n([C@@H]2O[C@H](C)[C@@H](O)C2O)cc1F (some centres not stated) , z-score: 0.348

Recorded result, `COc1cc(CNC(=O)CCCCC=CC(C)C)ccc1O` , z-score: 0.406

Recorded result, CC1(C)OC2CC3C4CC(F)C5=CC(=O)C=CC5(C)C4C(O)CC3(C)[C@]2(C(=O)CO)O1 (some centres not stated) , z-score: 1.01

Recorded result, C[C@@H]1O[C@@H](O[C@H]2CC[C@@]3(C)[C@H](CC[C@@H]4[C@H]3C[C@@H](O)[C@]3(C)[C@@H](C5=CC(=O)OC5)CC[C@]43O)C2)C[C@H](O)[C@@H]1O[C@H]1C[C@H](O)[C@H](O[C@H]2C[C@H](O)[C@@H](O)[C@@H](C)O2)[C@H](C)O1 (stereo in doubt) , z-score: -1.68

Recorded result, `CC(C)C[C@@H](N)[C@H](O)C(=O)N[C@H](C(=O)N[C@H](C(=O)N[C@@H](CC(=O)O)C(=O)O)C(C)C)C(C)C` , z-score: 0.596

Recorded result, `C[C@@H]1C[C@H]2[C@@H]3CCC4=CC(=O)C=C[C@]4(C)[C@@]3(F)[C@@H](O)C[C@]2(C)[C@@]1(O)C(=O)CO` , z-score: 0.108
